Molecular target: CDK6 (Homo sapiens (Human), UniProt Q00534)
attribute measured: pIC50
The value called pIC50 is obtained by taking minus log10 of the concentration in mol/L.

Consider the worked cases shown below.
CC(C)N1CCOc2c(F)cc(-c3nc(Nc4ccc5c(c4)CN(C(=O)CN(C)C)CC5)ncc3F)cc21 | 8.52
CC(C)N1CCOc2c(F)cc(-c3nc(Nc4ccc5c(c4)CCC(N(C)C)C5)ncc3F)cc21 (stereo not drawn) | 8.40
CC(C)N1CCOc2c(F)cc(-c3nc(Nc4ccc(C5CCN(C(=O)CN(C)C)CC5)c(F)c4)ncc3F)cc21 | 7.57
CCN1CCOc2c(F)cc(-c3nc(Nc4ccc(N5CCNCC5)c(F)c4)ncc3F)cc21 | 8.52

IN: API: value(readout=pIC50, system=CDK6 (Homo sapiens (Human), UniProt Q00534)) for record CC(C)N1CCOc2c(F)cc(-c3nc(Nc4ccc(CN5CCN(CC6CC6)CC5)cn4)ncc3F)cc21
OUT: 8.40

IN: // lookup pIC50 | system=CDK6 (Homo sapiens (Human), UniProt Q00534) | key= CC(C)N1CCOc2c(F)cc(-c3nc(Nc4ccc(C5CCN(C)CC5)c(C5CC5)n4)ncc3F)cc21
OUT: 6.97

IN: Record lookup: for CDK6 (Homo sapiens (Human), UniProt Q00534), what pIC50 belongs to CC(C)CN1CCOc2c(F)cc(-c3nc(Nc4ccc5c(n4)CCNC5)ncc3F)cc21 ?
OUT: 7.70

Cited source: patent US11174252B2
